# Tested on: NCI-H322M lung
# Procedure details: NCI-60 one-dose screen, 48 h
# Experimental context: 10 µM unless noted
This is part of a sample that, as a whole, favours compounds with a hit. Of some 83,000 tested, about 20% had one in any assay. Calls of active or inactive are those of the source. How the source made its calls: active means growth percent below 10; inactive means the rest.
Classes used: 1.0 for active, 0.0 for inactive

compound="CCC(O)(C(c1ccccc1)c1ccccn1)C(c1ccccc1)c1ccccn1 (stereo unspecified)" answer_label=0.0
compound=Clc1ccc2[nH]c3c(NCCCN4CCOCC4)ncnc3c2c1 answer_label=0.0
compound=N=C(N)c1ccc(-c2ccc(-c3ccc(Cl)cc3Cl)o2)nc1 answer_label=0.0
compound=N#Cc1c(N)nc2c(nnn2-c2cccc(Br)c2)c1N answer_label=0.0
compound=CS(=O)(=O)c1ccc(-c2nc3cc(Cl)ccc3n2CC(=O)NO)cc1 answer_label=0.0
compound=COc1cc(-c2ncn(/C=C\c3nnco3)n2)cc(C(F)(F)F)c1 answer_label=1.0
compound=CC(=O)c1ccc2c(c1)CCN2 answer_label=0.0
compound=C[C@]12CCC(=O)C[C@H]1CC[C@@H]1[C@@H]2CC[C@@]2(C)[C@H]1CC[C@]2(O)C(=O)CO answer_label=0.0
compound=Clc1ccc2c(NCCCN3CCN(c4nc(-n5ccnc5)nc5ccccc45)CC3)ccnc2c1 answer_label=0.0
compound=COc1ccc(/C(C)=C(\c2ccc(Cl)cc2)c2ccc(OCCN(C)C)cc2)cc1F answer_label=0.0
compound="CCCCCCN(CCCCCC)CC(O)c1cccc2ccc(Cl)cc12 (stereo unspecified)" answer_label=0.0

====

# Tested on: K-562 leukemia
# Procedure details: NCI-60 one-dose screen, 48 h (100 = growth as untreated, 0 = no growth, -100 = all killed)
# Experimental context: 10 µM unless noted
This is part of a sample that, as a whole, favours compounds with a hit. Of some 83,000 tested, about 20% had one in any assay.
A collection of molecules and their measured growth
Experimental endpoint: growth (%)

molecule=CCOC(=O)c1c2c(c(C)n1C)-c1nn(Cc3ccc(OC)cc3)cc1CC2 assay_target="K-562 leukemia" result=69.1
molecule="C=C1c2c(C)nn(-c3ccc(NC(C)=O)cc3)c2N(C)C23CC1C1(C)c4c(C)nn(-c5ccc(NC(C)=O)cc5)c4N(C)C(C)(CC12)C3 (stereo not given)" assay_target="K-562 leukemia" result=14.9
molecule=Nc1ccc(CCCCc2ccccc2)c(Cl)c1 assay_target="K-562 leukemia" result=90.1
molecule=CCn1c(Sc2nnc(NC(C)=O)s2)nc2c1c(=O)n(C)c(=O)n2C assay_target="K-562 leukemia" result=95.6
molecule=Cn1cc(Nc2nccc(-c3ccc(N4CCCC4)c(C#N)c3)n2)cn1 assay_target="K-562 leukemia" result=9.73

====

# System: SK-MEL-5 melanoma
# Procedure details: NCI-60 one-dose screen, 48 h (100 = growth as untreated, 0 = no growth, -100 = all killed)
# Experimental context: 10 µM unless noted
The panel holds about 83,000 compounds, 20% with a hit somewhere; the sample as a whole holds those more often.
Experimental endpoint: growth (%)

compound=CSc1ncc(C)c(Nc2ccc(Cl)cc2)n1 unit_info=% result=110
compound=COc1cc(C(=O)Nc2cc(O)c(CC=C(C)C)c(O)c2)cc2c1O[C@]1(C)CC[C@@H](O)C(C)(C)[C@H]1C2 unit_info=% result=-23.5
compound=CO[C@H]1/C=C/O[C@@]2(C)Oc3c(C)c(O)c4c(c3C2=O)C(=O)C(/C=N/N(c2ccccc2)c2ccccc2)=C(NC(=O)/C(C)=C\C=C\[C@H](C)[C@H](O)[C@@H](C)[C@@H](O)[C@@H](C)[C@H](OC(C)=O)[C@@H]1C)C4=O unit_info=% result=-88.2
compound=COc1cc(/C=C/C(=O)c2ccc(Nc3nc(Nc4ccccc4)nc(Nc4ccc(Cl)cc4)n3)cc2)cc(OC)c1OC unit_info=% result=39
compound=COc1ccc(NC(=O)c2cccc(-c3cc(=O)c4c(O)c(OC)c(OC)cc4o3)c2)cc1 unit_info=% result=91.4
compound=C(=C\c1nc2ccccc2[nH]1)/c1nc2ccccc2[nH]1 unit_info=% result=92.8
compound="CN1C[C@@H](c2ccc(Cl)cc2)[C@]2(NC(=S)N(c3ccccc3)C2=O)[C@@]12C(=O)NC1C=CC(Br)=C[C@H]12 (some centres undefined)" unit_info=% result=64
compound=Cc1nn(Cc2ccccc2)cc1C(=O)Nc1sc2c(c1C(N)=O)CCC(=O)C2 unit_info=% result=28.8
compound=COc1ccc(-n2ncn(CCCCCCn3cnn(-c4ccc(OC)cc4)c3=O)c2=O)cc1 unit_info=% result=95.2
compound=CCN(CC)CCCNC(=O)c1ccc(N)cc1O unit_info=% result=95.4
compound=CCCCN1CCN(c2ccc3nc(-c4ccc5nc(-c6cc(OC)c(OC)c(OC)c6)[nH]c5c4)[nH]c3c2)CC1 unit_info=% result=44.8
compound="CC12CC(C#N)CCC1O2 (centres undefined)" unit_info=% result=111
compound=Cc1ccc(-n2nnc(C3=NCCc4c3[nH]c3ccc(Cl)cc43)c2C)cc1 unit_info=% result=79.1
compound=CC(C)c1ccc(C(=O)OC(=O)c2ccc(C(C)C)cc2)cc1 unit_info=% result=116
compound=c1ccc2c(c1)nc(-n1ccnc1)c1nc3ccccc3n12 unit_info=% result=68.9
compound="COc1ccc(C(=O)/C=C/C23c4ccccc4C(c4ccccc42)C2C(=O)NC(=O)C23)cc1 (centres undefined)" unit_info=% result=95.9
compound="CCN(CC)CCCC(C)NCc1ccccc1 (centres undefined)" unit_info=% result=108
compound=O=C(Nc1ccc(N2CCCCC2)c(Cl)c1)c1ccc(Br)o1 unit_info=% result=-96.8
compound=N[C@@H]1CCC[C@H]1NCCCCN1C(=O)c2cccc3cccc(c23)C1=O unit_info=% result=93.1
